- Target: TIE1 (Homo sapiens)
- Construct: purchased Eurofins DiscoverX KINOMEscan (scanTK)
- Sequence (P35590 22-1138): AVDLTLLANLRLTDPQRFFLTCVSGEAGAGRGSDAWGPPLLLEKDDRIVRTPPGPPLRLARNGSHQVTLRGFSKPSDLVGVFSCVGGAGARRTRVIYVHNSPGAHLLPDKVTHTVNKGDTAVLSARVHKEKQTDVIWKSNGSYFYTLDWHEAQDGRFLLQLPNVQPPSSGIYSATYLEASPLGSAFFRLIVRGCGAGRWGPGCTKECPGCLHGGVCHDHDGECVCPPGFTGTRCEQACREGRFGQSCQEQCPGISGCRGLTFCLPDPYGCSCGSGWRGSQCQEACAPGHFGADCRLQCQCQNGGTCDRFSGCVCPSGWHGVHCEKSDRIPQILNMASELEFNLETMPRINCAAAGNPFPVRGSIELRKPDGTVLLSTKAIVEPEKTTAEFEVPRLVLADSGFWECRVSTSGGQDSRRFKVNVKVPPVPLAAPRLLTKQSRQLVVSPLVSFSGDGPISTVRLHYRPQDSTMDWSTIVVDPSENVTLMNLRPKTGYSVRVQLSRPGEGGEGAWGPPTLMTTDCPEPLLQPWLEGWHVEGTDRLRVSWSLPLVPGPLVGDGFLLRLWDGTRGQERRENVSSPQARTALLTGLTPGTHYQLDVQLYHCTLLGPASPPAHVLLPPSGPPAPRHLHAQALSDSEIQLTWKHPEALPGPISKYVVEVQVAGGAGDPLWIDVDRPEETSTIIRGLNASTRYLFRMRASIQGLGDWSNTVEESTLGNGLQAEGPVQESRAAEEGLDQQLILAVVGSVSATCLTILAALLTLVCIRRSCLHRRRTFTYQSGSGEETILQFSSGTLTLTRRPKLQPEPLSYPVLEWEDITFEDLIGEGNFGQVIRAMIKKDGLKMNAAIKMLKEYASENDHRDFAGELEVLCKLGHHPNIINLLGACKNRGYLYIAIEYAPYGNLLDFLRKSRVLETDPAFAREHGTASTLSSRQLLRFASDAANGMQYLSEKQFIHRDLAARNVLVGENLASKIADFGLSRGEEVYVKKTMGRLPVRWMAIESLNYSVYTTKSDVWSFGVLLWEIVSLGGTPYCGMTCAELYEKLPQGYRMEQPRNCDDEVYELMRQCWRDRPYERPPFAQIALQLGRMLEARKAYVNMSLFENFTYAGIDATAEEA
- Protocol Summary: KINOMEscan ScanTK
- Assay type: binding
- Condition Notes: @1000nM, read-out: %Control
Each record here notes measured remaining binding at 1 µM.
Numeric answer only, unit % assumed.

Study these solved cases before continuing.
Compound: COC(=O)c1cnc(S(C)(=O)=O)nc1N1CCCC(n2nc(-c3ccc(Oc4ccccc4)cc3)c3c(N)ncnc32)C1 (centres unmarked)
Assay Metric: remaining binding at 1 µM
Result Value: 77
--
Compound: C=CC(=O)N1CCC[C@@H](n2nc(-c3ccc(Oc4ccccc4)cc3)c3c(N)ncnc32)C1 [Compound 1g, Ibrutinib, reference compound]
Assay Metric: remaining binding at 1 µM
Result Value: 57
--
Compound: CCOC(=O)c1cnc(S(C)(=O)=O)nc1N1CCC[C@@H](n2nc(-c3ccc(Oc4ccccc4)cc3)c3c(N)ncnc32)C1
Assay Metric: remaining binding at 1 µM
Result Value: 60
--
Compound: Cc1cnc(S(C)(=O)=O)nc1N1CCCC(n2nc(-c3ccc(Oc4ccccc4)cc3)c3c(N)ncnc32)C1 (centres unmarked)
Assay Metric: remaining binding at 1 µM
Result Value: 89

Need remaining binding at 1 µM of CNC(=O)c1cnc(S(C)(=O)=O)nc1N1CCCC(n2nc(-c3ccc(Oc4ccccc4)cc3)c3c(N)ncnc32)C1 (centres unmarked) , thanks.
69

---

Each record here notes measured remaining binding at 1 µM.
- Target: YES (Homo sapiens)
- Construct: purchased Eurofins DiscoverX KINOMEscan (scanTK)
- Sequence (P07947 whole entry): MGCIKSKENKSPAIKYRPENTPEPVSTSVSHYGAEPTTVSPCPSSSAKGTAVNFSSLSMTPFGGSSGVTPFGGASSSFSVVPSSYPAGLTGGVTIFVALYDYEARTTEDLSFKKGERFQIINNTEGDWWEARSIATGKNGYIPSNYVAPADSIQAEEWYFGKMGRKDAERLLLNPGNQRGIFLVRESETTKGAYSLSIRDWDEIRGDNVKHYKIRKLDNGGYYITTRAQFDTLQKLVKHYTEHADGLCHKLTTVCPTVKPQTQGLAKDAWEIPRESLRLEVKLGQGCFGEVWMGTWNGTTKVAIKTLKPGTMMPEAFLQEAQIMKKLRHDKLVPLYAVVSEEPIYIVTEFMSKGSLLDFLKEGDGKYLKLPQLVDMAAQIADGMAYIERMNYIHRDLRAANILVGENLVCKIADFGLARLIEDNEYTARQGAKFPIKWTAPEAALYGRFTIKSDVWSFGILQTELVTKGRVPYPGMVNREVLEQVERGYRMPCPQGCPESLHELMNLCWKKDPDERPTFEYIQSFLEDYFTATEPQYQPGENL
- Protocol Summary: KINOMEscan ScanTK
- Format: binding
- Condition Notes: read-out: %Control @1000nM
Numeric answer only, unit % assumed.

Study these solved cases before continuing.
Compound: CCOC(=O)c1cnc(S(C)(=O)=O)nc1N1CCC[C@@H](n2nc(-c3ccc(Oc4ccccc4)cc3)c3c(N)ncnc32)C1 [Compound 8c]
remaining binding at 1 µM, %: 25

Compound: CNC(=O)c1cnc(S(C)(=O)=O)nc1N1CCCC(n2nc(-c3ccc(Oc4ccccc4)cc3)c3c(N)ncnc32)C1 (stereo not shown) [Compound 8d]
remaining binding at 1 µM, %: 11

Compound: COC(=O)c1cnc(S(C)(=O)=O)nc1N1CCCC(n2nc(-c3ccc(Oc4ccccc4)cc3)c3c(N)ncnc32)C1 (stereo not shown) [Compound 8b]
remaining binding at 1 µM, %: 16

Please examine the following record next.
Need remaining binding at 1 µM of Cc1cnc(S(C)(=O)=O)nc1N1CCCC(n2nc(-c3ccc(Oc4ccccc4)cc3)c3c(N)ncnc32)C1 (stereo not shown) [Compound 8a] , thanks.
8.1

---

Each record here notes measured remaining binding at 1 µM.
- Target: ABL1(Y253F)-phosphorylated (Homo sapiens, UniProt P00519, Y253F)
- Construct: purchased Eurofins DiscoverX KINOMEscan (scanTK)
- Protocol Summary: KINOMEscan ScanTK
- Format: binding
- Condition Notes: @1000nM, read-out: %Control
Numeric answer only, unit % assumed.

Compound: CNC(=O)c1cnc(S(C)(=O)=O)nc1N1CCCC(n2nc(-c3ccc(Oc4ccccc4)cc3)c3c(N)ncnc32)C1 (centres unmarked) [Compound 8d]
remaining binding at 1 µM / %: 80
--
Compound: Cc1cnc(S(C)(=O)=O)nc1N1CCCC(n2nc(-c3ccc(Oc4ccccc4)cc3)c3c(N)ncnc32)C1 (centres unmarked) [Compound 8a]
remaining binding at 1 µM / %: 83
--
Compound: COC(=O)c1cnc(S(C)(=O)=O)nc1N1CCCC(n2nc(-c3ccc(Oc4ccccc4)cc3)c3c(N)ncnc32)C1 (centres unmarked) [Compound 8b]
remaining binding at 1 µM / %: 78
--
Compound: CCOC(=O)c1cnc(S(C)(=O)=O)nc1N1CCC[C@@H](n2nc(-c3ccc(Oc4ccccc4)cc3)c3c(N)ncnc32)C1 [Compound 8c]
remaining binding at 1 µM / %: 81

Please examine the following record next.
Need remaining binding at 1 µM of C=CC(=O)N1CCC[C@@H](n2nc(-c3ccc(Oc4ccccc4)cc3)c3c(N)ncnc32)C1 [Compound 1g, Ibrutinib, reference compound] , thanks.
77

---

- Target: FGFR3 (Homo sapiens)
- Construct: purchased Eurofins DiscoverX KINOMEscan (scanTK)
- Sequence (P22607 23-806): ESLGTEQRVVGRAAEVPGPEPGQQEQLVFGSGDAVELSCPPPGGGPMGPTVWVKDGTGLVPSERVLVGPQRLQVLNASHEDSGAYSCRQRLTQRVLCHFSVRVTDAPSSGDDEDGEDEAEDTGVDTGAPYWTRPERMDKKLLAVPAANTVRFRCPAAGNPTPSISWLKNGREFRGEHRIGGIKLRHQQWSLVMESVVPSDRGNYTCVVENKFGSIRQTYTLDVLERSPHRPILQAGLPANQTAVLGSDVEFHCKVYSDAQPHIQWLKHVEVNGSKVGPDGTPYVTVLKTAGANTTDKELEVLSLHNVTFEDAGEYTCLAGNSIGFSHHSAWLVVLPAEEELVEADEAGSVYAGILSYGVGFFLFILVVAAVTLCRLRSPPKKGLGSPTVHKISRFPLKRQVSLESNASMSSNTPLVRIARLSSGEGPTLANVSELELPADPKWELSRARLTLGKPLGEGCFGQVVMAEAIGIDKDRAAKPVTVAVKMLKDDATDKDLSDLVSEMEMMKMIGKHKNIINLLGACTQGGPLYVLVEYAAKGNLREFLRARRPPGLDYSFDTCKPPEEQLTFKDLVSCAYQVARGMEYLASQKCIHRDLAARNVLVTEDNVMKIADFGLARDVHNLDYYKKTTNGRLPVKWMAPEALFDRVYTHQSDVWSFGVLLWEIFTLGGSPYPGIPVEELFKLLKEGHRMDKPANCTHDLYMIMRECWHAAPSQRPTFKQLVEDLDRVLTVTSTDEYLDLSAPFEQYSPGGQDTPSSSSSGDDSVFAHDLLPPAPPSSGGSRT
- Protocol Summary: KINOMEscan ScanTK
- Format: binding
- Condition Notes: @1000nM
Assay Metric: difference in %Control versus compound Ib at 1 µM (%)
Numeric answer only, unit % assumed.

Study these solved cases before continuing.
Compound: Cc1cnc(S(C)(=O)=O)nc1N1CCCC(n2nc(-c3ccc(Oc4ccccc4)cc3)c3c(N)ncnc32)C1 (stereo not shown) [Compound 8a]
Result Value: 44

Compound: CCOC(=O)c1cnc(S(C)(=O)=O)nc1N1CCC[C@@H](n2nc(-c3ccc(Oc4ccccc4)cc3)c3c(N)ncnc32)C1 [Compound 8c]
Result Value: 48

Compound: COC(=O)c1cnc(S(C)(=O)=O)nc1N1CCCC(n2nc(-c3ccc(Oc4ccccc4)cc3)c3c(N)ncnc32)C1 (stereo not shown) [Compound 8b]
Result Value: 47

Need difference in %Control versus compound Ib at 1 µM of CNC(=O)c1cnc(S(C)(=O)=O)nc1N1CCCC(n2nc(-c3ccc(Oc4ccccc4)cc3)c3c(N)ncnc32)C1 (stereo not shown) [Compound 8d] , thanks.
51

---

- Target: BLK (Homo sapiens, UniProt P51451)
- Construct: purchased Eurofins DiscoverX KINOMEscan (scanTK)
- Sequence (P51451 whole entry): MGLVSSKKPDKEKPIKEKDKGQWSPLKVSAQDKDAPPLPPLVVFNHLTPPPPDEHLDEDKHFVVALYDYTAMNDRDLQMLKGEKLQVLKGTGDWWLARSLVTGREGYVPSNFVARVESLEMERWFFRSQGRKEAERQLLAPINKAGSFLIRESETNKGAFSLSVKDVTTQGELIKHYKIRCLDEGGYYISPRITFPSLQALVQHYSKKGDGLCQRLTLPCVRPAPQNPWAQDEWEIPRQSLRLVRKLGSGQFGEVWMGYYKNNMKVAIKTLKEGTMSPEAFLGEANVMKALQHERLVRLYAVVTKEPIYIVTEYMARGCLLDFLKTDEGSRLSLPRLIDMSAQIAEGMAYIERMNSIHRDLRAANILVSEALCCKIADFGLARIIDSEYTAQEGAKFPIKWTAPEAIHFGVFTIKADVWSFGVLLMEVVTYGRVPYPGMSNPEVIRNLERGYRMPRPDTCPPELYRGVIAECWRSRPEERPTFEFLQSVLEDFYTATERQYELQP
- Protocol Summary: KINOMEscan ScanTK
- Format: binding
- Condition Notes: @1000nM; BLK; read-out: %Control
Assay Metric: remaining binding at 1 µM (%)
Numeric answer only, unit % assumed.

Study these solved cases before continuing.
Compound: COC(=O)c1cnc(S(C)(=O)=O)nc1N1CCCC(n2nc(-c3ccc(Oc4ccccc4)cc3)c3c(N)ncnc32)C1 (centres unmarked) [Compound 8b]
remaining binding at 1 µM / %: 0.4
--
Compound: Cc1cnc(S(C)(=O)=O)nc1N1CCCC(n2nc(-c3ccc(Oc4ccccc4)cc3)c3c(N)ncnc32)C1 (centres unmarked) [Compound 8a]
remaining binding at 1 µM / %: 0.1
--
Compound: CCOC(=O)c1cnc(S(C)(=O)=O)nc1N1CCC[C@@H](n2nc(-c3ccc(Oc4ccccc4)cc3)c3c(N)ncnc32)C1 [Compound 8c]
remaining binding at 1 µM / %: 0.2
--
Compound: C=CC(=O)N1CCC[C@@H](n2nc(-c3ccc(Oc4ccccc4)cc3)c3c(N)ncnc32)C1 [Compound 1g, Ibrutinib, reference compound]
remaining binding at 1 µM / %: 0.05

Please examine the following record next.
Please tell me: remaining binding at 1 µM of CNC(=O)c1cnc(S(C)(=O)=O)nc1N1CCCC(n2nc(-c3ccc(Oc4ccccc4)cc3)c3c(N)ncnc32)C1 (centres unmarked) [Compound 8d] , system BLK (Homo sapiens, UniProt P51451)?
0

---

- Target: ABL1(Q252H)-nonphosphorylated (Homo sapiens, UniProt P00519, Q252H)
- Construct: purchased Eurofins DiscoverX KINOMEscan (scanTK)
- Protocol Summary: KINOMEscan ScanTK
- Format: binding
- Condition Notes: read-out: %Control @1000nM
Assay Metric: remaining binding at 1 µM (%)
Numeric answer only, unit % assumed.

Molecule: CCOC(=O)c1cnc(S(C)(=O)=O)nc1N1CCC[C@@H](n2nc(-c3ccc(Oc4ccccc4)cc3)c3c(N)ncnc32)C1
remaining binding at 1 µM / %: 36

Need remaining binding at 1 µM of Cc1cnc(S(C)(=O)=O)nc1N1CCCC(n2nc(-c3ccc(Oc4ccccc4)cc3)c3c(N)ncnc32)C1 (centres unmarked) , thanks.
38

Need remaining binding at 1 µM of C=CC(=O)N1CCC[C@@H](n2nc(-c3ccc(Oc4ccccc4)cc3)c3c(N)ncnc32)C1 [Compound 1g, Ibrutinib, reference compound] , thanks.
13

Need remaining binding at 1 µM of CNC(=O)c1cnc(S(C)(=O)=O)nc1N1CCCC(n2nc(-c3ccc(Oc4ccccc4)cc3)c3c(N)ncnc32)C1 (centres unmarked) , thanks.
26

Need remaining binding at 1 µM of COC(=O)c1cnc(S(C)(=O)=O)nc1N1CCCC(n2nc(-c3ccc(Oc4ccccc4)cc3)c3c(N)ncnc32)C1 (centres unmarked) , thanks.
65

---

- Target: LCK (Homo sapiens, UniProt P06239)
- Construct: purchased Eurofins DiscoverX KINOMEscan (scanTK)
- Sequence (P06239 whole entry): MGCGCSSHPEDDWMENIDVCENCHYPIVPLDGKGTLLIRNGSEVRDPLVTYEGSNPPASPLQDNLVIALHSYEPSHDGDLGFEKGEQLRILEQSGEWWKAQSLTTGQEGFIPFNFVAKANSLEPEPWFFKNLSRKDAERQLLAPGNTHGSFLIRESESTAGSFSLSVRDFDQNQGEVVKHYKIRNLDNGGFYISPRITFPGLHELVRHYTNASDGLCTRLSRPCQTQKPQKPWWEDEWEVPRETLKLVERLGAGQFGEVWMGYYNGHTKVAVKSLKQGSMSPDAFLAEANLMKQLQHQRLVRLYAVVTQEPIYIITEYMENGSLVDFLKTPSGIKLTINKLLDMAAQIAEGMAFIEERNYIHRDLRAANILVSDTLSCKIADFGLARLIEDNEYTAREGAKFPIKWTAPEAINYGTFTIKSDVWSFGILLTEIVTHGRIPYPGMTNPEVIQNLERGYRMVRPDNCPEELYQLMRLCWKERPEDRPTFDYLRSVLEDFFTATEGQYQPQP
- Protocol Summary: KINOMEscan ScanTK
- Format: binding
- Condition Notes: @1000nM, read-out: %Control
Assay Metric: remaining binding at 1 µM (%)
Numeric answer only, unit % assumed.

Study these solved cases before continuing.
Compound: COC(=O)c1cnc(S(C)(=O)=O)nc1N1CCCC(n2nc(-c3ccc(Oc4ccccc4)cc3)c3c(N)ncnc32)C1 (stereo not shown)
Target: LCK (Homo sapiens, UniProt P06239)
Assay Metric: remaining binding at 1 µM
Value Units: %
Result Value: 8.3

Compound: CNC(=O)c1cnc(S(C)(=O)=O)nc1N1CCCC(n2nc(-c3ccc(Oc4ccccc4)cc3)c3c(N)ncnc32)C1 (stereo not shown)
Target: LCK (Homo sapiens, UniProt P06239)
Assay Metric: remaining binding at 1 µM
Value Units: %
Result Value: 4

Compound: CCOC(=O)c1cnc(S(C)(=O)=O)nc1N1CCC[C@@H](n2nc(-c3ccc(Oc4ccccc4)cc3)c3c(N)ncnc32)C1
Target: LCK (Homo sapiens, UniProt P06239)
Assay Metric: remaining binding at 1 µM
Value Units: %
Result Value: 25

Please examine the following record next.
Need remaining binding at 1 µM of Cc1cnc(S(C)(=O)=O)nc1N1CCCC(n2nc(-c3ccc(Oc4ccccc4)cc3)c3c(N)ncnc32)C1 (stereo not shown) , thanks.
2
